The values you see were collected from patent US12281122B1.

- System: SKBR3 (PI3Kα-Wild Type) cell line
- MEASUREMENT_DESCRIPTION: HTRF phospho-AKT(S473) cell assay in SKBR3 cells
- Type: cell-based, human
- RUN_CONDITIONS: Homo sapiens, SK-BR-3; SKBR3 (PI3Kα-Wild Type) cells, HTRF phospho-AKT(S473), 2 hours compound incubation, PDGF-BB stimulated
pIC50: −log10 of the molar value.
The following molecules are shown together with reported pIC50 values.

Look over these answered cases.
MOLECULE: Cc1cc([C@@H](C)Nc2cc(C)c(Cl)nc2C(=O)NS(C)(=O)=O)c2nc(N3Cc4ccc(F)cc4C3)n(C)c(=O)c2c1
TEST_VALUE: ≤ 5.30
--
MOLECULE: Cc1cc([C@@H](C)Nc2ccc(Cl)nc2C(=O)NS(C)(=O)=O)c2nc(-c3ccc(-c4noc(C)n4)nc3)n(C)c(=O)c2c1
TEST_VALUE: 5.30 to 6.00
--
MOLECULE: Cc1cc([C@@H](C)Nc2ccc(Cl)nc2C(=O)NS(C)(=O)=O)c2nc(N3CCC(c4cccn(C)c4=O)CC3)n(C)c(=O)c2c1
TEST_VALUE: ≤ 5.30
--
MOLECULE: Cc1cc([C@@H](C)Nc2ccc(Cl)nc2C(=O)NS(C)(=O)=O)c2nc(-c3ccc(N(C)C)nc3)n(C)c(=O)c2c1
TEST_VALUE: 5.30 to 6.00
--
MOLECULE: Cc1cc([C@@H](C)Nc2ccc(Cl)nc2C(=O)NS(=O)(=O)C2COC2)c2nc(N3Cc4ccc(F)cc4C3)n(C)c(=O)c2c1
TEST_VALUE: 5.30 to 6.00

Here is another molecule to look at.
[Q] Which value of pIC50 has been reported for "Cc1cc([C@@H](C)Nc2ccc(Cl)nc2C(=O)NS(C)(=O)=O)c2nc(N3CCC(n4ncc5cc(N)ccc54)CC3)n(C)c(=O)c2c1" in the records?
[A] 5.30 to 6.00

###

The following molecules are shown together with reported IC50 values.
- Tested on: SKBR3 (PI3Kα-Wild Type) cell line
- MEASUREMENT_DESCRIPTION: HTRF phospho-AKT(S473) cell assay in SKBR3 cells
- Assay type: cell-based, human
- RUN_CONDITIONS: Homo sapiens, SK-BR-3; SKBR3 (PI3Kα-Wild Type) cell line, phospho-AKT(S473) HTRF, 2 hours compound incubation, PDGF-BB stimulated

Look over these answered cases.
SAMPLE_SMILES: [2H]C([2H])([2H])n1cc(-c2ccc(-c3nc4c([C@@H](C)Nc5ccc(Cl)nc5C(=O)NS(C)(=O)=O)cc(C)cc4c(=O)n3C)cn2)cn1
IC50: 1 to 5 µM

SAMPLE_SMILES: COc1ncc(-c2nc3c([C@@H](C)Nc4ccc(Cl)nc4C(=O)NS(C)(=O)=O)cc(C)cc3c(=O)n2C)cn1
IC50: ≥ 5 µM

SAMPLE_SMILES: Cc1cc([C@@H](C)Nc2ccc(Cl)nc2C(=O)NS(C)(=O)=O)c2nc(-c3ccc4nn(C)c(C)c4c3)n(C)c(=O)c2c1
IC50: 1 to 5 µM

SAMPLE_SMILES: Cc1cc2c(=O)n(C)c(-c3ccc4nn(C)cc4c3)nc2c([C@@H](C)Nc2ccc(Cl)nc2C(=O)NS(C)(=O)=O)n1
IC50: 1 to 5 µM

SAMPLE_SMILES: Cc1cc([C@@H](C)Nc2ccc(Cl)nc2C(=O)NS(C)(=O)=O)c2nc(-c3ccc4nc(C)cn4c3)n(C)c(=O)c2c1
IC50: 1 to 5 µM

Here is another molecule to look at.
[Q] Which value of IC50 has been reported for "Cc1cc([C@@H](C)Nc2ccc(Cl)nc2C(=O)NS(C)(=O)=O)c2nc([C@H]3[C@@H]4CNC[C@@H]43)n(C)c(=O)c2c1" in the records?
[A] ≥ 5 µM
